Target: Neuropeptide Y receptor type 1 (Homo sapiens)
Sequence (P25929 whole entry): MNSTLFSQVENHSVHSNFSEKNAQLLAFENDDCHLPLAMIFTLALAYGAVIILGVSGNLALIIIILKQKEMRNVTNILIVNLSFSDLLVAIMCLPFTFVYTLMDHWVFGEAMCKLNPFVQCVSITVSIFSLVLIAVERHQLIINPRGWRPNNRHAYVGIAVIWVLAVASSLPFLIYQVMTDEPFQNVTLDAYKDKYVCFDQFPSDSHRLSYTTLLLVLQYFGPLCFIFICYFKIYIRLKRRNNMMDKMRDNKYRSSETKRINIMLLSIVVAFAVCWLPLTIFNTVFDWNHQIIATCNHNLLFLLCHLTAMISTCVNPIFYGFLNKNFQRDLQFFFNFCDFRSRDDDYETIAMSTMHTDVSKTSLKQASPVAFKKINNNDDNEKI
Assay: Displacement of [3H]UR-MK114 from human neuropeptide Y receptor type 1 expressed in human SK-N-MC cells
Format: cell-based
TEST READOUT: Ki (nM)

1. NCCN(CCNC(=O)CCC(=O)NCCOCCOCCNC(=O)/N=C(/N)NCCC[C@@H](NC(=O)C(c1ccccc1)c1ccccc1)C(=O)NCc1ccc(O)cc1)CCNC(=O)CCC(=O)NCCOCCOCCNC(=O)/N=C(/N)NCCC[C@@H](NC(=O)C(c1ccccc1)c1ccccc1)C(=O)NCc1ccc(O)cc1
2. N=C(N)NCCC[C@@H](NC(=O)C(c1ccccc1)c1ccccc1)C(=O)NCc1ccc(CNC(=O)NCCCCN)cc1
Which record would sort first by descending Ki, 1 or 2 ? # reply format: chosen label 2
(2: 41 nM, 1: 25 nM)

---

biological target: UniProtKB P25929; assay: Displacement of [3H]UR-MK114 from human neuropeptide Y receptor type 1 expressed in human SK-N-MC cells; assay type: cell-based
TEST READOUT: Ki (nM)

Check out these entries, answers already filled in.
[[record]]
molecule = "NCCN(CCNC(=O)CCC(=O)NCCCCCCNC(=O)/N=C(\\N)NCCC[C@H](NC(=O)CC1(CC(=O)N2CCN(C3c4ccccc4NC(=O)c4ccccc43)CC2)CCCC1)C(=O)NCCn1c(=O)n(-c2ccccc2)n(-c2ccccc2)c1=O)CCNC(=O)CCC(=O)NCCCCCCNC(=O)/N=C(\\N)NCCC[C@@H](NC(=O)C(c1ccccc1)c1ccccc1)C(=O)NCc1ccc(O)cc1 (mixture of isomers)"
recorded_number = 230

[[record]]
molecule = "NCCN(CCNC(=O)c1ccc(C(=O)NCCCCNC(=O)/N=C(/N)NCCC[C@@H](NC(=O)C(c2ccccc2)c2ccccc2)C(=O)NCc2ccc(O)cc2)cc1)CCNC(=O)c1ccc(C(=O)NCCCCNC(=O)/N=C(/N)NCCC[C@@H](NC(=O)C(c2ccccc2)c2ccccc2)C(=O)NCc2ccc(O)cc2)cc1"
recorded_number = 53


a. NCCOCCOCCNC(=O)/N=C(/N)NCCC[C@@H](NC(=O)C(c1ccccc1)c1ccccc1)C(=O)NCc1ccc(O)cc1
b. N=C(N)NCCC[C@@H](NC(=O)C(c1ccccc1)c1ccccc1)C(=O)NCc1ccc(CNC(=O)NCCCCNC(=O)CCCC(=O)NCCN(CCN)CCNC(=O)CCCC(=O)NCCCCNC(=O)NCc2ccc(CNC(=O)[C@@H](CCCNC(=N)N)NC(=O)C(c3ccccc3)c3ccccc3)cc2)cc1
c. NCCC(=O)NCCNC(=O)CCC(=O)NCCNC(=O)CCC(=O)NCCNC(=O)/N=C(\N)NCCC[C@@H](NC(=O)C(c1ccccc1)c1ccccc1)C(=O)NCc1ccc(CNC(N)=O)cc1
d. NCCN(CCNC(=O)CCCC(=O)/N=C(/N)NCCC[C@@H](NC(=O)C(c1ccccc1)c1ccccc1)C(=O)NCc1ccc(O)cc1)CCNC(=O)CCCC(=O)/N=C(/N)NCCC[C@@H](NC(=O)C(c1ccccc1)c1ccccc1)C(=O)NCc1ccc(O)cc1
Put these in order: smallest Ki first, largest last. Answer by listing the labels in the order asked for. a, d, b, c
(a: 7.3 nM, d: 30 nM, b: 330 nM, c: 1200 nM)

---

The following compounds are listed with their measured Ki values.
target: Neuropeptide Y receptor type 1 (Homo sapiens); test: Displacement of [3H]UR-MK114 from human neuropeptide Y receptor type 1 expressed in human MCF7 cells; assay type: cell-based
Unit nM implied. Number only.

Some solved entries appear below for comparison.
[[record]]
compound = "N=C(N)NCCC[C@@H](NC(=O)C(c1ccccc1)c1ccccc1)C(=O)NCc1ccc(CNC(=O)NCCCCNC(=O)CCCC(=O)NCCN(CCN)CCNC(=O)CCCC(=O)NCCCCNC(=O)NCc2ccc(CNC(=O)[C@@H](CCCNC(=N)N)NC(=O)C(c3ccccc3)c3ccccc3)cc2)cc1"
recorded_number = 430

[[record]]
compound = "CCC(=O)NCCN(CCNC(=O)c1ccc(C(=O)NCCOCCOCCNC(=O)/N=C(/N)NCCC[C@@H](NC(=O)C(c2ccccc2)c2ccccc2)C(=O)NCc2ccc(O)cc2)cc1)CCNC(=O)c1ccc(C(=O)NCCOCCOCCNC(=O)/N=C(/N)NCCC[C@@H](NC(=O)C(c2ccccc2)c2ccccc2)C(=O)NCc2ccc(O)cc2)cc1"
recorded_number = 110


Fill blank: measured Ki of the compound NCCN(CCNC(=O)CCC(=O)NCCCCCCNC(=O)/N=C(\N)NCCC[C@H](NC(=O)CC1(CC(=O)N2CCN(C3c4ccccc4NC(=O)c4ccccc43)CC2)CCCC1)C(=O)NCCn1c(=O)n(-c2ccccc2)n(-c2ccccc2)c1=O)CCNC(=O)CCC(=O)NCCCCCCNC(=O)/N=C(\N)NCCC[C@@H](NC(=O)C(c1ccccc1)c1ccccc1)C(=O)NCc1ccc(O)cc1 (mixture of isomers) is ____. 260

---

target: UniProt P25929; test: Displacement of [3H]UR-MK114 from human neuropeptide Y receptor type 1 expressed in human SK-N-MC cells; type: cell-based
TEST READOUT: Ki (nM)

[[record]]
smiles_record = "CCC(=O)NCCN(CCNC(=O)c1ccc(C(=O)NCCOCCOCCNC(=O)/N=C(/N)NCCC[C@@H](NC(=O)C(c2ccccc2)c2ccccc2)C(=O)NCc2ccc(O)cc2)cc1)CCNC(=O)c1ccc(C(=O)NCCOCCOCCNC(=O)/N=C(/N)NCCC[C@@H](NC(=O)C(c2ccccc2)c2ccccc2)C(=O)NCc2ccc(O)cc2)cc1"
recorded_number = 64


I. NCCC(=O)NCCNC(=O)CCC(=O)NCCNC(=O)/N=C(\N)NCCC[C@@H](NC(=O)C(c1ccccc1)c1ccccc1)C(=O)NCc1ccc(CNC(N)=O)cc1
II. NCCNC(=O)CCC(=O)NCCNC(=O)CCC(=O)NCCNC(=O)/N=C(\N)NCCC[C@@H](NC(=O)C(c1ccccc1)c1ccccc1)C(=O)NCc1ccc(CNC(N)=O)cc1
III. NCCNC(=O)CCC(=O)NCCNC(=O)/N=C(\N)NCCC[C@@H](NC(=O)C(c1ccccc1)c1ccccc1)C(=O)NCc1ccc(CNC(N)=O)cc1
Put the entries in order of Ki, starting with the largest number. Dear reader, please state the labels in the requested order. II, III, I

---

biological target: Neuropeptide Y receptor type 4 (Homo sapiens, UniProt P50391); assay: Antagonist activity at human neuropeptide Y receptor type 4 expressed in CHO cells co-expressing Gqi5-mtAEQ assessed as inhibition of hPP-induced calcium mobilization by Aequorin assay; assay type: functional, cell-based
Sequence (P50391 whole entry): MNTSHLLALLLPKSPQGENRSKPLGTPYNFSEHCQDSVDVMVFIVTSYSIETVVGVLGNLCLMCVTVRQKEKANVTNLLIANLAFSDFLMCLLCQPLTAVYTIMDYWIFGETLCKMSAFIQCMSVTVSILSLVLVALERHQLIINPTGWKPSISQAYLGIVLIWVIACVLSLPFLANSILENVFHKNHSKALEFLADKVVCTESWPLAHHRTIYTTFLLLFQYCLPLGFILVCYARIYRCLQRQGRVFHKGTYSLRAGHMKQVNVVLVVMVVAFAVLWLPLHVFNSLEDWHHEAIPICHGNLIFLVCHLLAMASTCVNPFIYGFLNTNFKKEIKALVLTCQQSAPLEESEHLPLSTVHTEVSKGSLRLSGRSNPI
TEST READOUT: Kb

# input compound: `NCCNC(=O)CCC(=O)NCCNC(=O)/N=C(\N)NCCC[C@H](NC(=O)C(c1ccccc1)c1ccccc1)C(=O)NCc1ccc(CNC(N)=O)cc1` ; wanted: its Kb > 5 µM

What do you get for `NCCCOCCOCCOCCNC(=O)CCC(=O)NCCNC(=O)/N=C(\N)NCCC[C@H](NC(=O)C(c1ccccc1)c1ccccc1)C(=O)NCc1ccc(CNC(N)=O)cc1` ? > 5 µM

Same lookup for `NCCC(=O)NCCNC(=O)CCC(=O)NCCNC(=O)/N=C(\N)NCCC[C@H](NC(=O)C(c1ccccc1)c1ccccc1)C(=O)NCc1ccc(CNC(N)=O)cc1` , please. > 5 µM

---

target: UniProt:P25929; test: Antagonist activity at neuropeptide Y receptor type 1 in HEL assessed as inhibition of pNPY-induced calcium mobilization by Fura-2 calcium assay; format: functional
TEST READOUT: Kb (nM)

Illustrative cases are given below, each with its answer.
[[record]]
compound = "NCCN(CCNC(=O)CCC(=O)NCCOCCOCCNC(=O)/N=C(/N)NCCC[C@H](NC(=O)C(c1ccccc1)c1ccccc1)C(=O)NCc1ccc(CNC(N)=O)cc1)CCNC(=O)CCC(=O)NCCOCCOCCNC(=O)/N=C(/N)NCCC[C@H](NC(=O)C(c1ccccc1)c1ccccc1)C(=O)NCc1ccc(CNC(N)=O)cc1"
recorded_number = 110

[[record]]
compound = "NCCN(CCNC(=O)CCC(=O)NCCOCCOCCNC(=O)/N=C(/N)NCCC[C@@H](NC(=O)C(c1ccccc1)c1ccccc1)C(=O)NCc1ccc(CNC(N)=O)cc1)CCNC(=O)CCC(=O)NCCOCCOCCNC(=O)/N=C(/N)NCCC[C@@H](NC(=O)C(c1ccccc1)c1ccccc1)C(=O)NCc1ccc(CNC(N)=O)cc1"
recorded_number = 4.2

[[record]]
compound = "NCCN(CCNC(=O)CCC(=O)NCCCCCCNC(=O)/N=C(\\N)NCCC[C@H](NC(=O)CC1(CC(=O)N2CCN(C3c4ccccc4NC(=O)c4ccccc43)CC2)CCCC1)C(=O)NCCn1c(=O)n(-c2ccccc2)n(-c2ccccc2)c1=O)CCNC(=O)CCC(=O)NCCCCCCNC(=O)/N=C(\\N)NCCC[C@@H](NC(=O)C(c1ccccc1)c1ccccc1)C(=O)NCc1ccc(O)cc1 (mixture of isomers)"
recorded_number = 1.5

[[record]]
compound = "N/C(=N/C(=O)CCCCCCC(=O)/N=C(\\N)NCCC[C@@H](NC(=O)C(c1ccccc1)c1ccccc1)C(=O)NCc1ccc(O)cc1)NCCC[C@@H](NC(=O)C(c1ccccc1)c1ccccc1)C(=O)NCc1ccc(O)cc1"
recorded_number = 3.5

[[record]]
compound = "N=C(N)NCCC[C@@H](NC(=O)C(c1ccccc1)c1ccccc1)C(=O)NCc1ccc(CNC(=O)NCCCCNC(=O)CCCC(=O)NCCN(CCN)CCNC(=O)CCCC(=O)NCCCCNC(=O)NCc2ccc(CNC(=O)[C@@H](CCCNC(=N)N)NC(=O)C(c3ccccc3)c3ccccc3)cc2)cc1"
recorded_number = 120

[[record]]
compound = "NCCN(CCNC(=O)c1ccc(C(=O)NCCOCCOCCNC(=O)/N=C(/N)NCCC[C@@H](NC(=O)C(c2ccccc2)c2ccccc2)C(=O)NCc2ccc(O)cc2)cc1)CCNC(=O)c1ccc(C(=O)NCCOCCOCCNC(=O)/N=C(/N)NCCC[C@@H](NC(=O)C(c2ccccc2)c2ccccc2)C(=O)NCc2ccc(O)cc2)cc1"
recorded_number = 0.25


A. NCCN(CCNC(=O)CCCC(=O)/N=C(/N)NCCC[C@@H](NC(=O)C(c1ccccc1)c1ccccc1)C(=O)NCc1ccc(O)cc1)CCNC(=O)CCCC(=O)/N=C(/N)NCCC[C@@H](NC(=O)C(c1ccccc1)c1ccccc1)C(=O)NCc1ccc(O)cc1
B. NCCN(CCNC(=O)CCC(=O)NCCOCCOCCNC(=O)/N=C(/N)NCCC[C@@H](NC(=O)C(c1ccccc1)c1ccccc1)C(=O)NCc1ccc(O)cc1)CCNC(=O)CCC(=O)NCCOCCOCCNC(=O)/N=C(/N)NCCC[C@@H](NC(=O)C(c1ccccc1)c1ccccc1)C(=O)NCc1ccc(O)cc1
Please choose the item with the lower Kb value from this pair: A and B Bench note: the answer is the label of the chosen record. B
(B: 1.1 nM, A: 4.2 nM)

Origin of measurements: ChEMBL document CHEMBL2439953
